The entries below come with measured pIC50 values attached.
biological target: human Gastric Inhibitory Peptide Receptor (GIPR) (human) (UniProt P48546); assay: FACS competition vs biotinylated GIP-057 on CHO-K1-hGIPR cells; category C: pIC50 6.1-7.0
Sequence (P48546 22-466 limits assumed): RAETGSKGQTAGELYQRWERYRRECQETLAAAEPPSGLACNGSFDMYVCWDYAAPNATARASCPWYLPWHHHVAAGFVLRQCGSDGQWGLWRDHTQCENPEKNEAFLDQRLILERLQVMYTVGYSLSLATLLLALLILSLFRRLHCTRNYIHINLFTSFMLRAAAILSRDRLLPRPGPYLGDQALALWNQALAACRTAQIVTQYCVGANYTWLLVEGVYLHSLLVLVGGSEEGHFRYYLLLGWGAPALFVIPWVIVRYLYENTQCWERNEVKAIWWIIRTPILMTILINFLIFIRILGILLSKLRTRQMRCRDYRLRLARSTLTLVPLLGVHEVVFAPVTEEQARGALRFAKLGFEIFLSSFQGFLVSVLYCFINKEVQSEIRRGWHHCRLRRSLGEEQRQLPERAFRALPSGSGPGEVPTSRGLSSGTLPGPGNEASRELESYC
*1 amine or outer side, *2 acyl side, *3 side chain or, on linkers, in order; H or OH if unused. Bridges are numbered along the chain shown (N, C = ends). Primed or numbered codes have the meaning given here. [ ]: non-standard residue; d: D form. The star is where a group is joined. APAc″ = 4-amino-1-carboxymethylpiperidine, NC1CCN(CC(=O)*)CC1; DOTA = O=C(O)CN1CCN(CC(=O)O)CCN(CC(=O)*)CCN(CC(=O)O)CC1; Trp(5-Cl) = N[C@@H](Cc1c[nH]c2ccc(Cl)cc12)C(=O)O; Pyridine(2,6-diCH2) = c1cc(C[*:1])nc(C[*:2])c1; Hyp = O=C(O)[C@@H]1C[C@@H](O)CN1; Cysteamide = C(CS[*:3])N[*:1]; Thp = NC1(C(=O)O)CCOCC1

Study these solved cases before continuing.
| binder | pIC50 |
| --- | --- |
| {DOTA-APAc″}-DG[Trp(5-Cl)][Hyp]E[dL]C[Thp]LI[Cysteamide] (linker (positions not given here) via Pyridine(2,6-diCH2); not fully specified (bridges); printed as DOTA-APAc-Asp-Gly-5Clw-Hyp-Glu-leu-[Cys(2Lut)-Thp-Leu-Ile-AET]) [DOTA-APAc-Asp-Gly-5Clw-Hyp-Glu-leu-[Cys(2Lut)-Thp-Leu-Ile-AET]] | 6.1 to 7 pic50 |
| Ac-DW[Trp(5-Cl)][Hyp]E[dL]C[Thp]LSC-NH2 (linker 7-11 via Pyridine(2,6-diCH2); SMILES CC(=O)N[C@@H](CC(=O)O)C(=O)N[C@@H](Cc1c[nH]c2ccccc12)C(=O)N[C@@H](Cc1c[nH]c2ccc(Cl)cc12)C(=O)N1C[C@H](O)C[C@H]1C(=O)N[C@@H](CCC(=O)O)C(=O)N[C@H](CC(C)C)C(=O)N[C@H]1CSCc2cccc(n2)CSC[C@@H](C(N)=O)NC(=O)[C@H](CO)NC(=O)[C@H](CC(C)C)NC(=O)C2(CCOCC2)NC1=O) [Ac-Asp-Trp-5Clw-Hyp-Glu-leu-[Cys(2Lut)-Thp-Leu-Ser-Cys]-NH2] | 6.1 to 7 pic50 |

Now consider a different binder.
get_value(item= Ac-DW[Trp(5-Cl)][Hyp]E[dL]C[Thp]LIC-NH2 (disulfide 7-11) [Ac-Asp-Trp-5Clw-Hyp-Glu-leu-[Cys-Thp-Leu-Ile-Cys]-NH2] , readout=pIC50) returns 6.1 to 7 pic50

Values compiled from patent US20250296971A1.
